target: BACE1 endogenous to primary cortical neurons from E16.5 CD1 mice (mouse, UniProt P56818 46-501); assay: cell-based or functional assay
Sequence (P56818 46-501): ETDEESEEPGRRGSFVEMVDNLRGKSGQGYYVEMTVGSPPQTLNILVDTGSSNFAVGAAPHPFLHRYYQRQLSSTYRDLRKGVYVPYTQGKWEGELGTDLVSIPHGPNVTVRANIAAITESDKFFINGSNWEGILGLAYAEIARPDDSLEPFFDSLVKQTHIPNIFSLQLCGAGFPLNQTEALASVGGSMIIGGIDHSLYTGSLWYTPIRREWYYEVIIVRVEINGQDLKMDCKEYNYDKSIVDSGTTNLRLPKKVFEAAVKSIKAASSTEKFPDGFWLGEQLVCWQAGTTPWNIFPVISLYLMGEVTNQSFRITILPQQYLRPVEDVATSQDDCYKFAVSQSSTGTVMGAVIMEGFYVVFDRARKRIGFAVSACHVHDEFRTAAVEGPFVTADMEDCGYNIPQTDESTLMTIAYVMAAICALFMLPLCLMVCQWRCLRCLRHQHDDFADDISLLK
QUANTITY_NAME: max % inhibition, Abeta x-40 in mouse cortical neurons (%)
Numbers only, in %.

binder="6308 (antibody, V domains shown) VH: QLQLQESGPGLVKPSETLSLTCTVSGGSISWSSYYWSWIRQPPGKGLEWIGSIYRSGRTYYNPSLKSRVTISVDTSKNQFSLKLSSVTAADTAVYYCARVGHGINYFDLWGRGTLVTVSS VL: EIVLTQSPATLSLSPGERATLSCRASQSVSSYLAWYQQKPGQAPRLLIYDASKRATGIPARFSGSGSGTDFTLTISSLEPEDFAVYYCQQSLVWPPRTFGGGTKVEIK" experimental_value=60
binder="6315 (antibody, V domains shown) VH: QLQLQESGPGLVKPSETLSLTCTVSGGSISRGSYYWGWIRQPPGKGLEWIGMIYYSGSTWYNPSLKSRVTISVDTSKNQFSLKLSSVTAADTAVYYCARVGHGVSYFDLWGRGTLVTVSS VL: EIVLTQSPATLSLSPGERATLSCRASQSVSSYLAWYQQKPGQAPRLLIYDASKRATGIPARFSGSGSGTDFTLTISSLEPEDFAVYYCQQSLVWPPRTFGGGAKVEIK" experimental_value=73

Now consider the entry below.
Value of measured max % inhibition, Abeta x-40 in mouse cortical neurons for the entry 6313 (antibody, V domains shown) VH: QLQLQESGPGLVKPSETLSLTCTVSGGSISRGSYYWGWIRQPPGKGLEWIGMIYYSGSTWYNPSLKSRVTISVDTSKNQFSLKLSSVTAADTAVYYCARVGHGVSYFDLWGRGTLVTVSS VL: EIVLTQSPATLSLSPGERATLSCRASQSVSSYLAWYQQKPGQAPRLLIYDASNRATGIPARFSGSGSGTDFTLTISSLEPEDFAVYYCQQAYVWPPRTFGGGTKVEIK : 67
